Assay: Inhibition of Metallo-beta-lactamase VIM-1 (unknown origin) using FC5 as fluorescence substrate preincubated for 10 mins followed by substrate addition by microplate reader analysis
pIC50: −log10 of the molar value.
Catalogue of compounds with associated pIC50

COMPOUND: O=C(O)c1ncoc1Cc1ccccc1
pIC50: < 4.00

COMPOUND: O=C(O)c1nc2ccccc2n1Cc1ccccc1
pIC50: < 4.00

COMPOUND: O=C(O)c1nccn1CCc1ccc(-c2cccc3ccccc23)cc1
pIC50: < 4.00

COMPOUND: O=C(O)c1nccn1CCNS(=O)(=O)c1ccccc1
pIC50: < 4.00

COMPOUND: O=C(O)c1nccn1C(C(=O)O)c1ccccc1 (stereo not given)
pIC50: < 3.52
